The reported numbers originate from ChEMBL document CHEMBL2311276.

Measured inhibition in vivo at 50 mg/kg, listed per entry for reference.
System: Rattus norvegicus
EXPERIMENTAL DETAILS: Antiinflammatory activity in Charles Foster albino rat assessed as inhibition of carrageenan-induced paw edema at 50 mg/kg, po administered 30 mins before carrageenan challenge measured after 1 to 3 hrs by plethysmometer analysis
Assay type: functional
RESULT TYPE: inhibition in vivo at 50 mg/kg (%)

- COMPOUND: "N=C(NCCN1CCNCC1)c1ccccn1"
  RESULT TYPE: "inhibition in vivo at 50 mg/kg"
  OBSERVED RESULT: 11
- COMPOUND: "N=C(NCc1cccnc1)c1ccccn1"
  RESULT TYPE: "inhibition in vivo at 50 mg/kg"
  OBSERVED RESULT: 10
- COMPOUND: "N=C(NCCN1CCOCC1)c1cnccn1"
  RESULT TYPE: "inhibition in vivo at 50 mg/kg"
  OBSERVED RESULT: 15
- COMPOUND: "N=C(NCc1cccnc1)c1ccncc1"
  RESULT TYPE: "inhibition in vivo at 50 mg/kg"
  OBSERVED RESULT: 0
- COMPOUND: "N=C(NCCCN1CCN(CCCNC(=N)c2ccccn2)CC1)c1ccccn1"
  RESULT TYPE: "inhibition in vivo at 50 mg/kg"
  OBSERVED RESULT: 38
- COMPOUND: "N=C(NCCCCNC(=N)c1cnccn1)c1cnccn1"
  RESULT TYPE: "inhibition in vivo at 50 mg/kg"
  OBSERVED RESULT: 37
- COMPOUND: "N=C(NCCN1CCNCC1)c1ccncc1"
  RESULT TYPE: "inhibition in vivo at 50 mg/kg"
  OBSERVED RESULT: 0
- COMPOUND: "CC(C)Cc1ccc(C(C)C(=O)O)cc1 (configuration not stated) [IBUPROFEN]"
  RESULT TYPE: "inhibition in vivo at 50 mg/kg"
  OBSERVED RESULT: 39
- COMPOUND: "N=C(NCCCN1CCN(CCCNC(=N)c2ccncc2)CC1)c1ccncc1"
  RESULT TYPE: "inhibition in vivo at 50 mg/kg"
  OBSERVED RESULT: 31
- COMPOUND: "N=C(Nc1ccc(-c2ccc(NC(=N)c3cnccn3)cc2)cc1)c1cnccn1"
  RESULT TYPE: "inhibition in vivo at 50 mg/kg"
  OBSERVED RESULT: 31
- COMPOUND: "N=C(Nc1ccc(-c2ccc(NC(=N)c3ccccn3)cc2)cc1)c1ccccn1"
  RESULT TYPE: "inhibition in vivo at 50 mg/kg"
  OBSERVED RESULT: 26
- COMPOUND: "N=C(NCCCN1CCN(CCCNC(=N)c2cnccn2)CC1)c1cnccn1"
  RESULT TYPE: "inhibition in vivo at 50 mg/kg"
  OBSERVED RESULT: 27

###

Tested on: NCI-H522
EXPERIMENTAL DETAILS: Cytotoxicity against human NCI-H522 cells after 24 hrs by MTT assay
Assay type: functional, cell-based
CONDITION NOTES: NCI-H522, 24 h
pIC50: −log10 of the molar value.
Measured pIC50, listed per entry for reference.

- COMPOUND: "N=C(NCCCN1CCN(CCCNC(=N)c2ccccn2)CC1)c1ccccn1"
  pIC50: 4.66
- COMPOUND: "O=c1[nH]cc(F)c(=O)[nH]1"
  pIC50: 4.25
- COMPOUND: "N=C(NCCCCNC(=N)c1ccncc1)c1ccncc1"
  pIC50: 4.44
- COMPOUND: "N=C(NCCN1CCOCC1)c1cnccn1"
  pIC50: 4.74
- COMPOUND: "N=C(Nc1ccc(-c2ccc(NC(=N)c3cnccn3)cc2)cc1)c1cnccn1"
  pIC50: 4.85
- COMPOUND: "O=P1(N(CCCl)CCCl)NCCCO1 (centres undefined) [CYCLOPHOSPHAMIDE ANHYDROUS]"
  pIC50: 4.17
- COMPOUND: "C[C@@H]1C[C@@H]([C@H](O)CC2CC(=O)NC(=O)C2)C(=O)[C@@H](C)C1 [CYCLOHEXIMIDE]"
  pIC50: 4.22
- COMPOUND: "N=C(NCCN1CCNCC1)c1ccncc1"
  pIC50: 4.45
- COMPOUND: "N=C(Nc1ccc(-c2ccc(NC(=N)c3ccncc3)cc2)cc1)c1ccncc1"
  pIC50: 4.87

###

Tested on: HCT-15
EXPERIMENTAL DETAILS: Cytotoxicity against human HCT15 cells after 24 hrs by MTT assay
Assay type: functional, cell-based
CONDITION NOTES: HCT-15, 24 h
Grouping rule (IC50): class A: < 40 µM; class B: ≥ 40 µM and < 80 µM; class C: ≥ 80 µM

- MOLECULE: "N=C(NCCCCNC(=N)c1ccncc1)c1ccncc1"
  SYSTEM UNDER TEST: "HCT-15"
  CAT: "class C"
- MOLECULE: "N=C(NCCCN1CCN(CCCNC(=N)c2ccccn2)CC1)c1ccccn1"
  SYSTEM UNDER TEST: "HCT-15"
  CAT: "class A"
- MOLECULE: "C[C@@H]1C[C@@H]([C@H](O)CC2CC(=O)NC(=O)C2)C(=O)[C@@H](C)C1 [CYCLOHEXIMIDE]"
  SYSTEM UNDER TEST: "HCT-15"
  CAT: "class B"
- MOLECULE: "N=C(NCCN1CCNCC1)c1ccncc1"
  SYSTEM UNDER TEST: "HCT-15"
  CAT: "class A"
- MOLECULE: "N=C(Nc1ccc(-c2ccc(NC(=N)c3cnccn3)cc2)cc1)c1cnccn1"
  SYSTEM UNDER TEST: "HCT-15"
  CAT: "class A"
- MOLECULE: "O=c1[nH]cc(F)c(=O)[nH]1 [FLUOROURACIL]"
  SYSTEM UNDER TEST: "HCT-15"
  CAT: "class B"
- MOLECULE: "N=C(Nc1ccc(-c2ccc(NC(=N)c3ccncc3)cc2)cc1)c1ccncc1"
  SYSTEM UNDER TEST: "HCT-15"
  CAT: "class C"
- MOLECULE: "O=P1(N(CCCl)CCCl)NCCCO1 (centres undefined) [CYCLOPHOSPHAMIDE ANHYDROUS]"
  SYSTEM UNDER TEST: "HCT-15"
  CAT: "class B"

###

Test system: T47D
EXPERIMENTAL DETAILS: Cytotoxicity against human T47D cells after 24 hrs by MTT assay
Format: functional, cell-based
pIC50: −log10 of the molar value.
RESULT TYPE: pIC50

- COMPOUND: "N=C(NCCCCNC(=N)c1ccncc1)c1ccncc1"
  RESULT TYPE: "pIC50"
  OBSERVED RESULT: 4.37
- COMPOUND: "N=C(NCCN1CCOCC1)c1cnccn1"
  RESULT TYPE: "pIC50"
  OBSERVED RESULT: 4.26
- COMPOUND: "O=P1(N(CCCl)CCCl)NCCCO1 (centres undefined) [CYCLOPHOSPHAMIDE ANHYDROUS]"
  RESULT TYPE: "pIC50"
  OBSERVED RESULT: 4.15
- COMPOUND: "N=C(NCCCN1CCN(CCCNC(=N)c2ccccn2)CC1)c1ccccn1"
  RESULT TYPE: "pIC50"
  OBSERVED RESULT: 4.65
- COMPOUND: "N=C(Nc1ccc(-c2ccc(NC(=N)c3ccncc3)cc2)cc1)c1ccncc1"
  RESULT TYPE: "pIC50"
  OBSERVED RESULT: 4.47
- COMPOUND: "C[C@@H]1C[C@@H]([C@H](O)CC2CC(=O)NC(=O)C2)C(=O)[C@@H](C)C1 [CYCLOHEXIMIDE]"
  RESULT TYPE: "pIC50"
  OBSERVED RESULT: 4.19
- COMPOUND: "O=c1[nH]cc(F)c(=O)[nH]1"
  RESULT TYPE: "pIC50"
  OBSERVED RESULT: 4.29
- COMPOUND: "N=C(Nc1ccc(-c2ccc(NC(=N)c3cnccn3)cc2)cc1)c1cnccn1"
  RESULT TYPE: "pIC50"
  OBSERVED RESULT: 4.20
- COMPOUND: "N=C(NCCN1CCNCC1)c1ccncc1"
  RESULT TYPE: "pIC50"
  OBSERVED RESULT: 3.73

###

Tested on: HepG2
EXPERIMENTAL DETAILS: Cytotoxicity against human HepG2 cells assessed as growth inhibition at 1 x 10 '-5 M after 24 hrs by MTT assay
Assay type: functional
CONDITION NOTES: HepG2, 24 h, read-out: GI

- MOLECULE: "N=C(Nc1ccc(-c2ccc(NC(=N)c3ccncc3)cc2)cc1)c1ccncc1"
  inhibition of growth at 10 µM / %: 48
- MOLECULE: "N=C(NCc1cccnc1)c1cnccn1"
  inhibition of growth at 10 µM / %: 26
- MOLECULE: "N=C(NCCCN1CCN(CCCNC(=N)c2ccccn2)CC1)c1ccccn1"
  inhibition of growth at 10 µM / %: 34
- MOLECULE: "N=C(NCCCN1CCN(CCCNC(=N)c2ccncc2)CC1)c1ccncc1"
  inhibition of growth at 10 µM / %: 6
- MOLECULE: "O=P1(N(CCCl)CCCl)NCCCO1 (stereo unspecified) [CYCLOPHOSPHAMIDE ANHYDROUS]"
  inhibition of growth at 10 µM / %: 18
- MOLECULE: "N=C(NCc1cccnc1)c1ccccn1"
  inhibition of growth at 10 µM / %: 42
- MOLECULE: "N=C(NCCCCNC(=N)c1ccccn1)c1ccccn1"
  inhibition of growth at 10 µM / %: 26
- MOLECULE: "N=C(Nc1ccc(-c2ccc(NC(=N)c3cnccn3)cc2)cc1)c1cnccn1"
  inhibition of growth at 10 µM / %: 37
- MOLECULE: "O=c1[nH]cc(F)c(=O)[nH]1"
  inhibition of growth at 10 µM / %: 32
- MOLECULE: "N=C(Nc1ccc(-c2ccc(NC(=N)c3ccccn3)cc2)cc1)c1ccccn1"
  inhibition of growth at 10 µM / %: 23
- MOLECULE: "N=C(NCCN1CCOCC1)c1cnccn1"
  inhibition of growth at 10 µM / %: 52
- MOLECULE: "N=C(NCCN1CCOCC1)c1ccccn1"
  inhibition of growth at 10 µM / %: 40
- MOLECULE: "N=C(NCCN1CCNCC1)c1ccncc1"
  inhibition of growth at 10 µM / %: 10
- MOLECULE: "N=C(NCCN1CCOCC1)c1ccncc1"
  inhibition of growth at 10 µM / %: 9
- MOLECULE: "N=C(NCCN1CCNCC1)c1cnccn1"
  inhibition of growth at 10 µM / %: 23
- MOLECULE: "N=C(NCCCN1CCN(CCCNC(=N)c2cnccn2)CC1)c1cnccn1"
  inhibition of growth at 10 µM / %: 22
- MOLECULE: "N=C(NCCCCNC(=N)c1cnccn1)c1cnccn1"
  inhibition of growth at 10 µM / %: 17
- MOLECULE: "N=C(NCCN1CCNCC1)c1ccccn1"
  inhibition of growth at 10 µM / %: 27
- MOLECULE: "N=C(NCCCCNC(=N)c1ccncc1)c1ccncc1"
  inhibition of growth at 10 µM / %: 50
- MOLECULE: "C[C@@H]1C[C@@H]([C@H](O)CC2CC(=O)NC(=O)C2)C(=O)[C@@H](C)C1 [CYCLOHEXIMIDE]"
  inhibition of growth at 10 µM / %: 18
- MOLECULE: "N=C(NCc1cccnc1)c1ccncc1"
  inhibition of growth at 10 µM / %: 20
